experiment: Solubility of X4P-001; type: physicochemical; details: aqueous buffer; pH range 3.0 to 8.0 (freely soluble)
observed property: solubility

Please report the recorded solubility for NCCCCN(Cc1nc2ccccc2[nH]1)[C@H]1CCCc2cccnc21 [X4P-001] . > 100 mg/mL
